Measured self-cleavage of individual entries
B1: LINE1-full (parent)
chain: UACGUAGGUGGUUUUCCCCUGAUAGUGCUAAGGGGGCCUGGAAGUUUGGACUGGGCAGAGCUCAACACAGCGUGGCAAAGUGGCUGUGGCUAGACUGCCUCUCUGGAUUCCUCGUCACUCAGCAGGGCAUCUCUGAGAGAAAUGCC

variants of: B1; experiment: self-cleavage, relative activity (ratio to wild type); higher = more cleavage; in vitro, sequencing; the parent is a self-cleaving ribozyme
Write the value as a bare number.

Recorded results for 5 variants are shown here.
self-cleavage measured on A2G C3U = 0.65

Reported self-cleavage of U12G A140C : 0.48

The variant U91C A142G showed self-cleavage equal to 0.73

# self-cleavage (variant: U39C G55A ) is 0.08

The variant listed as U15A A92G shows self-cleavage equal to 0.25

***
For C38U A117G the variant record lists self-cleavage as 2.38

U13C U29A yielded self-cleavage of 0.95

self-cleavage reading for G72U A142G : 0

Note to self: self-cleavage recorded for U109A U112C was 1.08

Reported self-cleavage of U62C U109A : 0.03

// self-cleavage lookup, variant = U20G A136U , result: 0.98

Value of self-cleavage reported for the variant U14C U62C is 0.09

Query G8U G35A yields self-cleavage of 1.41

Data provenance: the RNAGym collection of RNA variant scans (doi:10.7554/elife.90254)
